Attribute: LD50 at 24 h
test: Toxicity (mice, 24 hour value); settings: mouse, in vivo, po
QUANTITY: LD50 at 24 h

COMPOUND	QUANTITY	REPORTED VALUE
CON=C(C(=O)NC1C(=O)N2C(C(=O)OCOC(=O)C(C)(C)C)=C(CSc3n[nH]c(=O)c(=O)n3C)CSC12)c1ccco1 (centres unmarked) [Derivative A]	LD50 at 24 h	2500 to 5000 mg/kg
CON=C(C(=O)NC1C(=O)N2C(C(=O)OCOC(=O)C(C)(C)C)=C(CSc3nc(=O)c(OCOC(=O)C(C)(C)C)nn3C)CSC12)c1ccco1 (centres unmarked) [Derivative B]	LD50 at 24 h	1250 to 2500 mg/kg
